Recorded values, source PubChem BioAssay (NCI).

System: SF-295 CNS
Experiment Notes: NCI-60 one-dose screen, 48 h
Measurement Conditions: 10 µM unless noted
This is part of a sample that, as a whole, favours compounds with a hit. Of some 83,000 tested, about 20% had one in any assay. Calls of active or inactive are those of the source. Rule for the calls: active = growth percent below 10; inactive = the rest.
Your answer must be one of the following: y (active), n (inactive)

O=C(Nc1cccc([N+](=O)[O-])c1)c1ccc(Cl)c(Cl)c1
n

What is the recorded call for this molecule in the test? CCCC(=O)OCC1OC(n2cnc3c(=S)nc(N)[nH]c32)C(OC(=O)CCC)C1OC(=O)CCC (stereo not drawn) n

What is the recorded call for this molecule in the test? COc1ccc(S(=O)(=O)N(C(C)=O)c2ccccc2/C=C/c2cc[n+]([O-])cc2)cc1 n

----------
Tested on: HS 578T breast
Experiment Notes: NCI-60 one-dose screen, 48 h (100 = growth as untreated, 0 = no growth, -100 = all killed)
Measurement Conditions: 10 µM
Compounds without any hit were thinned out: in the full panel of roughly 83,000, 20% have a hit.
Quick reference for growth among some compounds
Report as a plain number; the unit % is understood.

Observe how each entry below is paired with its result.
CCCC(=O)OCC1OC(n2cnc3c(=S)nc(N)[nH]c32)C(OC(=O)CCC)C1OC(=O)CCC (centres undefined)
29.9
c1cc[n+](Cc2c3ccccc3cc3c2ccc2ccccc23)cc1
13.3
O=C1CC(c2cccc(F)c2)c2c(n[nH]c2-c2ccc(Cl)cc2)N1 (centres undefined)
91.2

Turning to the following compound.
Could you please provide reported growth for O=CC(OC(=O)c1ccccc1)C(OC(=O)c1ccccc1)C(COC(c1ccccc1)(c1ccccc1)c1ccccc1)OC(=O)c1ccccc1 (centres undefined) ? Thanks! 51.8

----------
Quick reference for growth among some compounds
Tested on: DU-145 prostate
Experiment Notes: NCI-60 one-dose screen, 48 h (100 = growth as untreated, 0 = no growth, -100 = all killed)
Measurement Conditions: 10 µM unless noted
Compounds without any hit were thinned out: in the full panel of roughly 83,000, 20% have a hit.
Report as a plain number; the unit % is understood.

CC1CCC(n2cnc3c(Cl)ncnc32)O1 (centres undefined)
112
NC1=Nc2cc(OCCCN3Cc4ccccc4C3)c(OCC3CC3)cc2C12CCCC2
78.6
Cn1cc(-c2[nH]c3cc(NC(=O)[C@H](N)C4CCCCC4)cc4c3c2C=NNC4=O)cn1
30.5

Turning to the following compound.
Could you please provide reported growth for Cc1cn(-c2cc(NC(=O)c3ccc(C)c(Nc4nccc(-c5cccnc5)n4)c3)cc(C(F)(F)F)c2)cn1 ? Thanks! 46

----------
Tested on: EKVX NSCLC
Experiment Notes: NCI-60 one-dose screen, 48 h
Measurement Conditions: 10 µM unless noted
Protocol: Growth inhibition of the EKVX human Non-Small Cell Lung tumor cell line is measured as a screen for anti-cancer activity. Cells are grown in 96 well plates and exposed to the test compound for 48 hours. Compounds are tested at a single concentration, which is 10^-5 M for most compounds. The reported endpoint is percent growth (GI% or GIPRCNT), where numbers from 0 - 100% represent growth inhibition, and numbers from -100% - 0 represent cell death. […]
The panel holds about 83,000 compounds, 20% with a hit somewhere; the sample as a whole holds those more often. Active and inactive are the calls of the source. The calls were made as follows: active = growth percent below 10; inactive = the rest.
Your answer must be one of the following: yes for active, no for inactive

The examples below pair each entry with its known result.
O=C(NO)c1ccc(Cn2c(=O)n(-c3ccccc3F)c(=O)c3ccccc32)cc1
yes
Cc1nn(-c2nc3ccccc3[nH]2)c2c1C(c1ccc(O)cc1)CC(=O)N2 (centres undefined)
no
Clc1ccc(Nc2nccc(Nc3ccc4[nH]ncc4c3)n2)cc1
no
CCCCCCCC12Cc3ccccc3C1=Nc1c(c3ccccc3n1C)C2=O (centres undefined)
no
O=C(Nc1ccc(N=Nc2ccccc2)cc1)c1cccc2ccccc12
no

Lab note: next molecule to report on.
What is the recorded call for this molecule in the test? COc1ccc2c(c1OC)C(=O)O[C@@H]2[C@H]1c2c(c(C#CC#Cc3ccc(F)c(F)c3)c3c(c2OC)OCO3)CCN1C no

----------
Tested on: UACC-62 melanoma
Experiment Notes: NCI-60 one-dose screen, 48 h
Measurement Conditions: 10 µM unless noted
Compounds without any hit were thinned out: in the full panel of roughly 83,000, 20% have a hit. The source made the active and inactive calls. The calls were made as follows: active = growth percent below 10; inactive = the rest.
Your answer must be one of the following: t (active), f (inactive)

COc1ccc2c(CCCc3ccc(Cl)cc3Cl)c3[n+](cc2c1OC)CCc1cc2c(cc1-3)OCO2
t
Clc1nc(Cl)c2ncn(CC#CCn3cnc4c(Cl)nc(Cl)nc43)c2n1
t
Cc1ccc(C(=O)Nc2ccc(CN3CCN(C)CC3)c(C(F)(F)F)c2)cc1C#Cc1cnc2cccnn12
t

What is the recorded call for this molecule in the test? Nc1nc(N)c2nc(-c3cccc(O)c3)c(-c3cccc(O)c3)nc2n1 f

What is the recorded call for this molecule in the test? Cc1cc(C)n(CC(=O)Nc2ccc(-c3nc4ccccc4s3)cc2)n1 f

What is the recorded call for this molecule in the test? CN1CCN(c2nc(C3=C(c4c[nH]c5ccccc45)C(=O)NC3=O)c3ccccc3n2)CC1 t

What is the recorded call for this molecule in the test? C[C@@H](Oc1cc(C(=O)Nc2ccc(C(=O)N3CCN(C)CC3)cc2)nnc1N)c1c(Cl)ccc(F)c1Cl f

----------
Test system: RPMI-8226 leukemia
Experiment Notes: NCI-60 one-dose screen, 48 h (100 = growth as untreated, 0 = no growth, -100 = all killed)
Measurement Conditions: 10 µM unless noted
The panel holds about 83,000 compounds, 20% with a hit somewhere; the sample as a whole holds those more often.
YES if growth is below 30%. NO if not; exact matches included in NO.

The examples below pair each entry with its known result.
CCN1CCN(c2nc(C)cc(N(CCCNc3ccnc4cc(Cl)ccc34)Cc3ccc4c(c3)OCO4)n2)CC1
YES
CCCCCCCC(=O)SCC/C=C/[C@@H]1CC(=O)NCc2cccc(n2)C2=N[C@@](C)(CS2)C(=O)N[C@@H](C(C)C)C(=O)N1
YES
Cc1ccc(-n2nc(C(C)(C)C)cc2NC(=O)NCc2cc(F)ccc2Oc2ccc3c(cnn3CCO)c2)cc1
YES

For O=C1/C(=C\c2cccc(OCCCCCOc3ccc(Cl)cc3)c2)N=C2SCCCN12 , is the recorded growth below the cut-off of 30%? NO

For CC1(O)CC(c2nc(-c3ccc4ccc(-c5ccccc5)nc4c3)c3c(N)nccn23)C1 (stereo not drawn) , is the recorded growth below the cut-off of 30%? NO

For COC(=O)c1ccc2c(C(=Nc3ccc(N(C)C(=O)CN4CCN(C)CC4)cc3)c3ccccc3)c(O)[nH]c2c1 , is the recorded growth below the cut-off of 30%? NO

For CCCCCCC1(/C=N/NC(N)=O)NC(=O)NC1=O (stereo not drawn) , is the recorded growth below the cut-off of 30%? NO

For COc1ccc(S(=O)(=O)N(C(C)=O)c2ccccc2/C=C/c2cc[n+]([O-])cc2)cc1 , is the recorded growth below the cut-off of 30%? YES

----------
Test system: SNB-75 CNS
Experiment Notes: NCI-60 one-dose screen, 48 h
Measurement Conditions: 10 µM unless noted
Experimental: Growth inhibition of the SNB-75 human tumor cell line is measured as a screen for anti-cancer activity. Cells are grown in 96 well plates and exposed to the test compound for 48 hours. Compounds are tested at a single concentration, which is 10^-5 M for most compounds. The reported endpoint is percent growth (GI% or GIPRCNT), where numbers from 0 - 100% represent growth inhibition, and numbers from -100% - 0 represent cell death. For example, a value of 40 represents 60% growth inhibition. […]
This is part of a sample that, as a whole, favours compounds with a hit. Of some 83,000 tested, about 20% had one in any assay. Active and inactive are the calls of the source. The calls were made as follows: active = growth percent below 10; inactive = the rest.
Your answer must be one of the following: active, inactive

The examples below pair each entry with its known result.
COc1ccc2c(CCCc3ccc(Cl)cc3Cl)c3[n+](cc2c1OC)CCc1cc2c(cc1-3)OCO2
inactive
COc1cc(-c2nc(C(=O)Nc3ccc(C)cc3)nn2-c2ccc(F)c(F)c2)cc(OC)c1OC
inactive
COC(=O)Nc1nc2ccc(C(=O)c3ccc(N(C)C4COC4)cc3)cc2[nH]1
inactive
CCN1CCN(c2nc(C)cc(N(CCCNc3ccnc4cc(Cl)ccc34)Cc3ccc4c(c3)OCO4)n2)CC1
active

What is the recorded call for this compound in the test? NC(=O)c1n[nH]n2c1nc(=O)c1c3c(sc12)CCCC3 inactive

----------
System: SNB-19 CNS
Experiment Notes: NCI-60 one-dose screen, 48 h (100 = growth as untreated, 0 = no growth, -100 = all killed)
Measurement Conditions: 10 µM unless noted
Compounds without any hit were thinned out: in the full panel of roughly 83,000, 20% have a hit. Calls of active or inactive are those of the source. How the source made its calls: active means growth percent below 10; inactive means the rest.
Property Name: growth

Cc1nc2cc(-c3nn(C(C)C)c4ncnc(N)c34)ccc2o1
-4.62% (active)
O=C(NC1CCNCC1)c1[nH]ncc1NC(=O)c1c(Cl)cccc1Cl
12.5% (inactive)

Turning to the following compound.
Could you please provide reported growth for C[C@@H](N)c1ccc(C(=O)Nc2ccnc3[nH]ccc23)cc1 ? Thanks! 60.7% (inactive)
